Source listed as ChEMBL document CHEMBL3098102.

Test system: Saccharomyces cerevisiae
Test name: Antimicrobial activity against Saccharomyces cerevisiae by two-fold serial dilution method
Format: functional
Reported MIC values for a set of compounds

Consider the worked cases shown below.
{"columns": ["Smiles representation", "Value"],
 "data": [
  ["O=C1c2cccc3c(Br)ccc(c23)C(=O)N1N(Cc1cn(Cc2ccc(F)cc2)nn1)Cc1cn(Cc2ccc(F)cc2)nn1", "> 512 µg/mL"],
  ["Cl.Cl.O=C1c2cccc3c(Br)ccc(c23)C(=O)N1N(Cc1cn(Cc2ccccc2F)nn1)Cc1cn(Cc2ccccc2F)nn1", "> 512 µg/mL"]
]}

Exercise: Reported MIC for CCCCCCCCn1cc(CN(Cc2cn(CCCCCCCC)nn2)N2C(=O)c3cccc4c(Br)ccc(c34)C2=O)nn1.Cl.Cl : what is it?
Solution: > 512 µg/mL

Exercise: Reported MIC for Cl.Cl.Cl.Cl.Cl.Cl.O=C1c2cccc3c(Br)ccc(c23)C(=O)N1N(Cc1cn(Cc2ccc(Cl)c(Cl)c2)nn1)Cc1cn(Cc2ccc(Cl)c(Cl)c2)nn1 : what is it?
Solution: 32 µg/mL
